In this section, each of the compounds is paired with its reported CC50.
Tested on: MDK
Assay Method Text: Cytotoxicity assay (sulforhodamine staining, CC50)
Assay type: cell-based
Conditions Used: MDK cells; 4 days incubation; concentration reducing cell number by 50%; preliminary results

Cc1cn([C@@H]2O[C@](C)(CO)[C@@H](O)[C@H]2O)c(=O)[nH]c1=O : > 250 µM
C[C@]1(CO)O[C@@H](n2ccc(=S)[nH]c2=O)[C@H](O)[C@@H]1O : > 250 µM
C[C@]1(CO)O[C@@H](n2ccc(N)nc2=O)[C@H](O)[C@@H]1O : > 250 µM

Output CC50 of C[C@]1(CO)O[C@@H](n2cnc3c(=O)[nH]c(N)nc32)[C@H](O)[C@@H]1O
> 250 µM

Output CC50 of C[C@]1(CO)O[C@@H](n2cnc3c(N)ncnc32)[C@H](O)[C@@H]1O
> 250 µM

Output CC50 of CC1(CO)OC(n2cc(F)c(=O)[nH]c2=O)C(O)C1O (stereo not drawn)
> 167 µM
